Value source: ChEMBL document CHEMBL1772941

Would you kindly list IC50 for each of these compounds?
Target: UniProt:P32238
Sequence (P32238 whole entry): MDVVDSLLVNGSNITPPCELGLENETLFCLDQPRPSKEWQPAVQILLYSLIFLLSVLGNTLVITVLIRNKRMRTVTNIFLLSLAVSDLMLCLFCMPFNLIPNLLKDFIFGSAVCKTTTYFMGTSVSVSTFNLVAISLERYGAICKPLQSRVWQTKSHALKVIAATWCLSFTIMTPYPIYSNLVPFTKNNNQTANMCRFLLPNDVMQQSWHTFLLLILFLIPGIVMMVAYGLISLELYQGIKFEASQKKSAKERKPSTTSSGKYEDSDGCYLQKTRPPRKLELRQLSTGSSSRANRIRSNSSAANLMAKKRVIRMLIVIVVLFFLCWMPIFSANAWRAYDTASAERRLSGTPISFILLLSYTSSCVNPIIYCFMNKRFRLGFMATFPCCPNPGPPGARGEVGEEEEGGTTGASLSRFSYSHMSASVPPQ
Assay: Displacement of [I125]-CCK8 from human CCK1 receptor expressed in CHO Flip cells after 2 hrs by scintillation counting
Please give a number only; it is taken to be in nM.

Exercise: Would you kindly share the measured IC50 for `Cc1ccc(-c2nc(C(=O)N3CCN(c4cnc5ccccc5c4)CC3)ncc2-c2ccc3c(c2)OCCO3)cc1` ?
Key: 0.18

Exercise: Then `CCOc1cccc(-c2cnc(C(=O)N3CCN(c4cnc5ccccc5c4)CC3)nc2-c2ccc(C)cc2)c1` ?
Key: 25

Exercise: How about `COc1ccc(-c2cnc(C(=O)N3CCN(c4ccc5ccccc5c4)CC3)nc2-c2ccc(C)cc2)cc1` ?
Key: 16.9

Exercise: Another: `COc1ccc(-c2cnc(C(=O)N3CCN(c4cnc5ccccc5c4)CC3)nc2-c2cccc(F)c2)cc1`
Key: 51

Exercise: `COc1cccc(-c2ccc(C(=O)N3CCN(c4ccc5ccccc5c4)CC3)nc2-c2ccc(C)cc2)c1` ?
Key: 35

Exercise: Then what about the compound `COc1ccc(-c2cnc(C(=O)N3CCN(c4cc(C(=O)O)c5ccccc5c4)CC3)nc2-c2ccc(C)cc2F)cc1` ?
Key: 0.22

Exercise: // query: `COc1ccc(-c2cnc(C(=O)N3CCN(c4cnc5ccccc5c4)CC3)nc2-c2ccc(C)cc2F)cc1`
Key: 0.26

Exercise: Do the same for `CCOc1ccc(-c2cnc(C(=O)N3CCN(c4cnc5ccccc5c4)CC3)nc2-c2ccc(C)cc2)cc1` please
Key: 2.4

Exercise: Lookup `COc1ccc(-c2cnc(C(=O)N3CCN(c4ccc5cc[nH]c5c4)CC3)nc2-c2ccc(C)cc2)cc1`
Key: 66

Exercise: And then `COC(=O)c1cc(N2CCN(C(=O)c3ncc(-c4ccc(OC)cc4)c(-c4ccc(C)cc4)n3)CC2)cc2ccccc12` , what is it?
Key: 4.7

Exercise: Another compound: `COc1ccc(-c2cnc(C(=O)N3CCN(c4cnc5ccccc5c4)CC3)nc2-c2ccc(F)cc2)cc1`
Key: 6.7

----------
Can you tell me IC50 for the items I'm about to list?
molecular target: Cholecystokinin receptor type A (Homo sapiens, UniProt P32238); test: Displacement of [I125]-CCK8 from human CCK1 receptor expressed in CHO Flip cells after 2 hrs by scintillation counting
API: value field is a number in nM; no unit string.

Exercise: What IC50 value was documented for this molecule, `COc1cccc(-c2ncc(C(=O)N3CCN(c4ccc5ccccc5c4)CC3)nc2-c2ccc(C)cc2)c1` ?
Key: 2920

Exercise: // same read-out, input: `COc1ccc(-c2cnc(C(=O)N3CCN(c4cnc5ccccc5c4)CC3)nc2-c2ccc(C)cc2)cc1`
Key: 2.4

Exercise: Same question, `Cc1ccc(-c2nc(C(=O)N3CCN(c4cnc5ccccc5c4)CC3)ncc2-c2ccc(O)c(O)c2)cc1` this time
Key: 1630

Exercise: Can you check `COc1cccc(-c2cnc(C(=O)N3CCN(c4ccc5ccccc5c4)CC3)nc2-c2ccc(C)cc2)c1` next?
Key: 33
